Tested on: HOP-62
Test: NCI tumour cell line growth inhibition, 48 h
Calls of active or inactive are those of the source. Rule as the data show it: active = GI50 up to about 1.1 µM and inactive = higher.
Outcome field: choose from YES for active, NO for inactive

Hi team, can someone confirm the assay call for Cc1[nH]c2ccccc2c1C(=O)CC1(O)C(=O)Nc2ccccc21 (stereo unspecified) ?
NO

Per the records of this test, what outcome belongs to COc1cc(COC(=O)N(C)[C@@H](Cc2ccccc2)C(=O)O)c([N+](=O)[O-])cc1OC ?
NO

Hi team, can someone confirm the assay call for Cc1ccc(S(=O)(=O)NC2C(=O)c3ccccc3C(=O)C2n2ccnc2)cc1 (stereo unspecified) ?
NO

Record request — test call for N#C/C(=C1\N=NC(N)=C(c2ccc(Cl)cc2)C1=O)c1ccc(Cl)cc1
NO

For CCN(CC)CC[n+]1ccc2c(C)c3[nH]c4ccc(O)cc4c3c(C)c2c1 , what call appears in the results of this test?
NO

Further cases:
Dear colleague, could you share the recorded outcome for Fc1cccc(Cl)c1/C=N\N=C1c2ccccc2-c2ccccc21 when you have a moment?
NO

What outcome does the record of this test show for Cc1cs/c(=N\C(P(=O)(O)O)P(=O)(O)O)n1C ?
NO

Could you check what this test reported for O=C1C(Br)=C(c2ccccc2)O/C1=C/C(=O)c1ccc(Br)cc1 ?
NO

Please indicate how the test categorized CSC12c3cc(C)n(-c4ccc(I)cc4)c3CC(C)(C)CN1C(=O)C2Oc1ccccc1 (stereo unspecified) .
NO

Recorded call for Cc1cc(C)nc(NS(=O)(=O)c2ccc(NNC(=O)c3cccc4c(=O)c5ccccc5[nH]c34)cc2)n1 ?
NO

###

System: SK-MEL-5
Assay: NCI tumour cell line growth inhibition, 48 h
Calls of active or inactive are those of the source. Cut-off read from the data, not from the text of the source: active = GI50 up to about 1.1 µM and inactive = higher.
Reported GI50 values are given for each entry in this list.

Below, each entry is followed by its recorded GI50 result.
Check the records and state GI50 for CC1(C)CC(=O)C(C(=O)Nc2cccs2)=C(O)C1
40.6 µM (inactive)

Specify measured GI50 for O=C1CSC(c2ccccc2[N+](=O)[O-])N1c1ccc(-c2ccc(-n3c(-c4ccccc4)nc4ccccc4c3=O)cc2)cc1 (stereo not drawn) .
42 µM (inactive)

Moving on to the next compound.
In one line, give reported GI50 of the entry CC(C)(C)O/C=C1/C(=O)OC2C[C@@H](O[Si](C)(C)C(C)(C)C)CC12 (stereo partly drawn) .
60.3 µM (inactive)

###

Tested on: UACC-62
Test: NCI tumour cell line growth inhibition, 48 h
Active and inactive are the calls of the source. Cut-off read from the data, not from the text of the source: active = GI50 up to about 1.1 µM and inactive = higher.
Output constraint: value belongs to yes for active, no for inactive

Take a look at these entries with their results.
# fetch the recorded call for CCOC(=O)c1cc2c([nH]1)c(OC(C)=O)cc1c2ccn1Cc1ccccc1 here
no

For C=C1C[C@@H](O)[C@@H](Br)C(C)(C)[C@@]12C=CC(=O)CC2 , what call appears in the results of this test?
no

Assay result, entry CCN(CC)CC[n+]1ccc2c(C)c3[nH]c4ccc(O)cc4c3c(C)c2c1 — outcome?
no

Record request — test call for CC(=O)C1C(=O)C(=O)N(c2cccc(C)c2C)C1=O (centres undefined)
no

// outcome(item) with item = CCOC(=O)/C=C(/C(=O)OCC)n1cnc2c(=O)[nH]c(NC(C)=O)nc21
no

Further cases:
// outcome(item) with item = COC(=O)C(CCS(=O)(=O)CC(=O)C(=O)Nc1cccc(C(C)=O)c1)C(=O)OC
no

What is the recorded call for this molecule in the test? COc1cc2c(cc1O)CCN[C@@]21CS[C@H]2c3c(OC(C)=O)c(C)c4c(c3C(COC1=O)N1C2C2c3c(cc(C)c(OC)c3O)CC([C@@H]1O)N2C)OCO4 (some centres undefined)
yes

What call does the record list for COC(=O)N/N=C(\c1ccccc1)c1ccc(OC)cc1 ?
no

What did this assay record as the result for Cc1nc(Nc2nc3ccccc3[nH]2)nc(Cl)c1CCCl ?
no

###

Tested on: A549
Assay: NCI tumour cell line growth inhibition, 48 h
Active and inactive are the calls of the source. Cut-off read from the data, not from the text of the source: active = GI50 up to about 1.1 µM and inactive = higher.
Your reply should match one of these outcome classes. active, inactive

Solved entries:
Check the results log: what was the call for CCOC(=O)CC(C)C1(C=O)CCCCC1=O (centres undefined) ?
inactive

Recorded test outcome, item O=S(=O)(O)n1ccnc1
inactive

Identify the outcome logged in this assay for the compound shown: CC(=O)OCC1OC(n2c(=O)[nH]c(=O)c3sccc32)C(Br)C1OC(C)=O (centres undefined)
inactive

Which outcome was entered for the compound OCCOCn1nncc1Cn1ncc2c(SCc3ccccc3)ncnc21 in this test?
inactive

Give the logged outcome of this assay for the following compound: CCOC(=O)Nc1ccc2c(c1)N(C(=O)CCN(CC)CC)c1ccccc1S2
inactive

Turning now to a further record.
// param item: O=C1CSC(c2ccccc2[N+](=O)[O-])N1c1ccc(-c2ccc(-n3c(-c4ccccc4)nc4ccccc4c3=O)cc2)cc1 (centres undefined) ; yields the recorded call
inactive

###

Test system: SW-620
Assay: NCI tumour cell line growth inhibition, 48 h
Where a name gives a salt, the structure may show the parent alone. Active and inactive are the calls of the source. Cut-off read from the data, not from the text of the source: active = GI50 up to about 1.1 µM and inactive = higher.
observed.property: GI50

Fill in reported GI50 for this entry: CC1CCOc2ccc(cc2)/C=N\c2ccc(cc2)-c2ccc(cc2)/N=C\c2ccc(cc2)OCC1
> 100 µM (inactive)

Report measured GI50; entry is CC(NC(C)(C)C)C(=O)c1cccc(Cl)c1 (centres undefined) [BUPROPION HYDROCHLORIDE]
> 100 µM (inactive)

Please give measured GI50 of the following entry: COc1ccc(OC2OC(CO)C(O)C(O)C2O)cc1 (centres undefined)
> 100 µM (inactive)

Supply recorded GI50 for COC(=O)c1c[nH]c(=O)[nH]c1=O here.
> 100 µM (inactive)

Let me know recorded GI50 for O=C(O)CCC(C(=O)O)N1C(=O)c2ccccc2C1=O (centres undefined) , thanks.
> 100 µM (inactive)

Respond only with GI50 recorded for O=C(NC1C=Nc2ccc([N+](=O)[O-])cc2NC1=O)c1cc(Cl)cc([N+](=O)[O-])c1 (centres undefined)
> 100 µM (inactive)

Check the records and state GI50 for COc1cc([C@H]2c3[nH]c4ccccc4c3C[C@H]3COC(=O)N32)cc(OC)c1O
0.0268 µM (active)

Give the value of GI50 reported for the following: O=c1cc(/N=N\c2ccc(Cl)c(Cl)c2)[nH]c(=O)[nH]1
1.86 µM (inactive)

In one line, give reported GI50 of the entry COc1ccc(C2SCC(=O)N2c2ccc(-c3ccc(-n4c(-c5ccccc5)nc5ccccc5c4=O)cc3)cc2)cc1 (centres undefined) .
94.4 µM (inactive)

###

Tested on: HOP-62
Test: NCI tumour cell line growth inhibition, 48 h
Calls of active or inactive are those of the source. Cut-off read from the data, not from the text of the source: active = GI50 up to about 1.1 µM and inactive = higher.
Choose the fitting class; nothing outside True for active, False for inactive is accepted.

Hi team, can someone confirm the assay call for CCN(CC)CC1CCCCN1CC(=O)N1c2ccccc2NC(=O)CC1C (centres undefined) ?
False

Given Cc1ccc2c(c1)CNc1ccc(C)cc1CN2 , state the outcome it received in this test.
False

Called result for COC(=O)c1cc(NC(=O)Cc2c[nH]c3ccccc23)cn1C
False

Would you kindly look at the next entry?
Just curious, what result did O=C(N/N=C/c1cc(Br)cc(Br)c1O)c1ccccc1O get here?
True

###

System: RXF 393
Assay: NCI tumour cell line growth inhibition, 48 h
Calls of active or inactive are those of the source. No stated cut-off is given here; in the data, active = GI50 up to about 1.1 µM and inactive = higher.
GI50 by entry:

Answered cases to consult:
Indicate its recorded GI50; the molecule in question is O=c1cc(/N=N\c2ccc(Cl)c(Cl)c2)[nH]c(=O)[nH]1
1.77 µM (inactive)

Could you please provide reported GI50 for CC[C@@]12CCCN3CC[C@]4(c5cccc(OC)c5N(C(C)=O)[C@@H]4CC1)[C@H]32 ? Thanks!
60.4 µM (inactive)

Query GI50 for O=C(O)CCC(=O)Oc1ccc(O)c2c1CCCC2=O
> 100 µM (inactive)

Quickly give me recorded GI50 for COc1ccc(CN2C(=O)[C@@H]3Cc4c(OC)c(C)c(OC)c(OC)c4[C@H](/C2=C\c2cc(OC)c(OC)c(C)c2OC)N3C(=O)OC(C)C)cc1
80.4 µM (inactive)

Retrieve GI50 measured for COC1=CC(=O)[C@H]2[C@H](C)C(c3ccccc3)[C@@]2(C)C1=O (stereo not given in full) and print it.
> 100 µM (inactive)

Look up and report measured GI50 for this entry: CC1(C)C2CCC1(CC(=O)O)C(Cl)C2 (stereo not given)
> 100 µM (inactive)

Assign GI50 to the following record: COc1cccc2c1OC(c1ccc(Cl)cc1)C([N+](=O)[O-])=C2 (stereo not given)
1.64 µM (inactive)

Specify measured GI50 for CCOc1ccc(NC(=O)CC#N)cc1 .
> 100 µM (inactive)

Further cases:
Give the reported value of GI50 for this record: O=C1NCC2=C1CCC1c3ccccc3CCN21 (stereo not given)
> 100 µM (inactive)

Write down GI50 measured for item CCC/N=C/c1cc(Cc2ccc(O)c(/C=N/CCC)c2)ccc1O
16.3 µM (inactive)
